I'd be grateful if you could share measured Emax for these entries.
- test-target: human PPARγ LBD bound to Gal4 DBD (Homo sapiens)
- Construct: expressed in transfected cells; host or cells: HepG2
- Sequence (P37231 238-503 limits assumed): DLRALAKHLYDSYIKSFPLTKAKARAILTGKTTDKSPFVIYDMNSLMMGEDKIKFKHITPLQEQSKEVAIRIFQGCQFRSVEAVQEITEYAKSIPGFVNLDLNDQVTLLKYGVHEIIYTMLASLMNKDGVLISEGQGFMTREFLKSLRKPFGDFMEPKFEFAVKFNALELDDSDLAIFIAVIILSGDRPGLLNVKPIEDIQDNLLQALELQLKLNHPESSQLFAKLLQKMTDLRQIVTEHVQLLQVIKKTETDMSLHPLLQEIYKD
- protocol: PPARγ transfection luciferase reporter assay in HepG2 cells
- Format: cell-based
- condition-parameters: HepG2, 24 h; compared to full agonist response (standard TZD full agonist); read-out: PPARγ % activation
- Method: PPARγ agonist activity may be determined by a cell line transiently transfected with PPARγ bound to a DNA binding domain that controls luciferase expression. The degree of receptor agonism is measured by the amount of luciferase activity after compound treatment. The ratio of treated cells over vehicle control cells provides a measure of fold activation and allows an EC50 (shown in tables I and II as […] EC50) and % activation to be calculated […]
One number for each entry, in %.

The cases that follow already have their Emax on record.
>>> assay_value("CCc1nc2c(C)cc(CC[C@H](C)O)nc2n1[C@H]1CCc2cc(-c3ccccc3-c3nnn[nH]3)ccc21")
30
>>> assay_value("CCCc1nc2c(C)cc(CCC(C)(C)O)nc2n1[C@H]1CCc2cc(-c3ccccc3-c3nnn[nH]3)ccc21")
23

For each of the compounds below, note its Emax.
1. CCc1nc2c(C)cc(CC(C)=O)nc2n1[C@H]1CCc2cc(-c3ccccc3-c3nnn[nH]3)ccc21
2. CCc1nc2c(C)cc(CCc3ccccc3C)nc2n1[C@H]1CCc2cc(-c3ccccc3-c3nnn[nH]3)ccc21
3. CCc1nc2c(C)cc(CCc3ccccn3)nc2n1[C@H]1CCc2cc(-c3ccccc3-c3nnn[nH]3)ccc21
4. CCc1nc2c(C)cc(Cn3cccn3)nc2n1[C@H]1CCc2cc(-c3ccccc3-c3nnn[nH]3)ccc21

Reply:
21
15
26
46

For each of the compounds below, note its Emax.
1. CCc1nc2c(C)cc(COC)nc2n1[C@H]1CCc2cc(-c3ccccc3-c3nnn[nH]3)ccc21
2. CCc1nc2c(C)cc(CCc3ccccc3)nc2n1[C@H]1CCc2cc(-c3ccccc3-c3nnn[nH]3)ccc21
3. CCc1nc2c(C)cc(Cn3nccn3)nc2n1[C@H]1CCc2cc(-c3ccccc3-c3nnn[nH]3)ccc21
4. CCc1nc2c(C)cc(CC3CCCCC3=O)nc2n1[C@H]1CCc2cc(-c3ccccc3-c3nnn[nH]3)ccc21 (stereo partly drawn)
5. CCCc1nc2c(C)cc(CCC(C)(O)CC)nc2n1[C@H]1CCc2cc(-c3ccccc3-c3nnn[nH]3)ccc21 (stereo partly drawn)
6. CCc1nc2c(C)cc(CC(O)CC(C)C)nc2n1[C@H]1CCc2cc(-c3ccccc3-c3nnn[nH]3)ccc21 (stereo partly drawn)
7. CCc1nc2c(C)cc(CC[C@@H](C)O)nc2n1[C@H]1CCc2cc(-c3ccccc3-c3nnn[nH]3)ccc21 (single isomer, unassigned)

Reply:
32
28
22
27
30
29
24

For each of the compounds below, note its Emax.
1. CCc1nc2c(C)cc(C(C)(C)OC)nc2n1[C@H]1CCc2cc(-c3ccccc3-c3nnn[nH]3)ccc21
2. CCc1nc2c(C)cc([C@@H](O)C(C)C)nc2n1[C@H]1CCc2cc(-c3ccccc3-c3nnn[nH]3)ccc21

Reply:
[24, 27]

----------
- test-target: human PPARγ LBD bound to Gal4 DBD (Homo sapiens)
- protocol: PPARγ transfection luciferase reporter assay in HepG2 cells
- condition-parameters: HepG2, 24 hours exposure
I'd be grateful if you could share measured pEC50 for these entries.
Give bare numbers, as −log10 of the molar value.

For each of the molecules below, note its pEC50.
1. CCc1nc2c(C)cc(CCC3(O)CCOC3)nc2n1[C@H]1CCc2cc(-c3ccccc3-c3nnn[nH]3)ccc21 (stereo partly shown) [Example 54]
2. CCc1nc2c(C)cc(COC)nc2n1[C@H]1CCc2cc(-c3ccccc3-c3nnn[nH]3)ccc21 [Example 3]

Reply:
1: 6.27; 2: 6.18
